Listed next: entries and their corresponding protein stability index.
B1: MED27 (parent)
chain: YNENVYTEDGKLDIWSKSNYQVFQ

Variants of: B1
Assay: protein stability index of a GFP-peptide fusion (GPS, HEK-293T) (PSI 1-6); higher = more stable;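 also: lentivirally expressed fusions sorted by FACS into six bins by GFP to DsRed ratio, PSI derived from sequencing read proportions per bin multiplied by bin number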
Settings: c terminus: a fixed tail appended

sequence-variant	protein stability index
Q24L	1.96
N19H	2.19
W15P	3.74
I14Y	1.95
G10E	2.65
